# Tested on: Wolbachia pipientis
# assay: Anti-Wolbachia Cell-Based Screen
# Assay type: functional
# Parameters: scale not given: in the data most compounds retested in dose-response had high values
# reported.conditions: 5 µM
The campaign covered roughly 48,000 compounds. About 13,000 (27%) showed an effect of 50% or more. The list shows a part of the results.
measured.attribute: Percent Effect (%)
Reply with just the number (in %).

Q: State the measured Percent Effect (Wolbachia pipientis) of CC(C)n1ncc2c1NC(=O)CC21C(=O)Nc2c(Cl)cccc21 (stereo not given)
A: -6.68

Q: State the measured Percent Effect (Wolbachia pipientis) of CCc1cnc(NCC(C)Oc2cccnc2)nc1 (stereo not given)
A: 7.623

Q: State the measured Percent Effect (Wolbachia pipientis) of CCC(C)(CC(=O)OC)NCc1cc(C)on1 (stereo not given)
A: -8.886

Q: State the measured Percent Effect (Wolbachia pipientis) of COC(=O)c1sccc1S(=O)(=O)N1CCc2c(ncnc2N(C)C)C1
A: -35.5

Q: State the measured Percent Effect (Wolbachia pipientis) of COc1cccc(-n2c(SCC(=O)O)nnc2-c2cn[nH]c2)c1
A: 1.781

Q: State the measured Percent Effect (Wolbachia pipientis) of CC(=O)N1CCC(c2nn(C)c3nccnc23)C1 (stereo not given)
A: 104.2

Q: State the measured Percent Effect (Wolbachia pipientis) of O=C1N[C@@H]2CCN(C(=O)c3ccccc3)[C@@H]2C(=O)N1Cc1ccccc1
A: -7.073

Q: State the measured Percent Effect (Wolbachia pipientis) of Cc1cnccc1N1CCN(c2nccc(CCC(F)(F)F)n2)CC1
A: 13.49

Q: State the measured Percent Effect (Wolbachia pipientis) of CCNC(c1ccc(Cl)cc1)c1cccnc1 (stereo not given)
A: 74.82

Q: State the measured Percent Effect (Wolbachia pipientis) of CN1CCC(C(=O)N2CCC(c3ccc4c(N)n[nH]c4n3)CC2)CC1
A: 104

Q: State the measured Percent Effect (Wolbachia pipientis) of CCN(CC)C(=O)CC[C@@H]1CNC(=O)[C@@H]2C[C@H](NC(=O)C3CC3)CN12
A: -0.8785

Q: State the measured Percent Effect (Wolbachia pipientis) of CCNC(c1ccc(C)cc1)c1cccnc1 (stereo not given)
A: 100.9

Q: State the measured Percent Effect (Wolbachia pipientis) of Cn1cc(-c2csc(N3CCN(c4nccs4)CC3)n2)cn1
A: -4.686

Q: State the measured Percent Effect (Wolbachia pipientis) of Cc1ccccc1Oc1ncccc1CNS(=O)(=O)N(C)C
A: -17.53

Q: State the measured Percent Effect (Wolbachia pipientis) of CC1CN(c2ncnc3sccc23)CCN1c1nccs1 (stereo not given)
A: 102.8

Q: State the measured Percent Effect (Wolbachia pipientis) of CN(C)CC(=O)N1Cc2nnn(C)c2C(COCC2CC2)C1 (stereo not given)
A: -6.376

Q: State the measured Percent Effect (Wolbachia pipientis) of CC[C@H]1COCCN1C(=O)CCCn1nnc(-c2ccc(F)cc2)n1
A: -1.392

Q: State the measured Percent Effect (Wolbachia pipientis) of CC(NCc1cccc(S(=O)(=O)N(C)C)c1)c1cccnc1 (stereo not given)
A: -5.764

Q: State the measured Percent Effect (Wolbachia pipientis) of CN(C)CC(=O)N1CC(c2nn(C)c3nccnc23)C1
A: 96.82

Q: State the measured Percent Effect (Wolbachia pipientis) of COc1cccc(-c2noc(-c3ccc(NCCCO)nc3)n2)c1OC
A: 11.35

These data points were gathered from ChEMBL document CHEMBL3988442.
